The compounds below have reported Ki for Galactocerebrosidase (Mus musculus, UniProt P54818).

{"Mol Smiles": "OC[C@@H]1[C@H](O)[C@H](O)[C@]2(O)CC[C@H]1N2", "Ki [mM]": 0.007}
{"Mol Smiles": "OC[C@@H]1[C@H](O)[C@H](O)[C@@H]2CC[C@H]1N2", "Ki [mM]": 2.3}

---

# Test Summary: Inhibition of Aspergillus oryzae beta-galactosidase using […] as substrate preincubated for 30 mins followed by substrate addition by UV-vis spectrophotometry analysis
pKi: −log10 of the molar value.

{"Mol Smiles": "OC[C@@H]1[C@H](O)[C@H](O)[C@@H]2CC[C@H]1N2", "pKi": 6.89}
{"Mol Smiles": "OC[C@@H]1[C@H](O)[C@H](O)[C@]2(O)CC[C@H]1N2", "pKi": 7.51}
